Consider the following molecules; for each one, report its mass density.
# Setup Conditions: 303.15 K; 101 kPa; Liquid
± gives the expanded uncertainty stated by the source.

Find the recorded mass density belonging to CCCC(C)O (stereo not given) and report it. 800.9 ± 0.48 kg/m3

Give its mass density value. Item: CC(C)O 776.6 ± 0.49 kg/m3

What measured mass density goes with C1CCCCC1 ? 769.19 ± 0.49 kg/m3

Name the recorded mass density for CCC(C)O (stereo not given) . 798.51 ± 0.48 kg/m3

Fill blank: measured mass density of the molecule C1CCCC1 is ____. 734.54 ± 0.66 kg/m3

###

# Setup Conditions: 298.15 K; 101 kPa; Liquid
Readout Type: speed of sound (m/s)
Express the result in m/s but write the number alone.

Value lookup for speed of sound; key = C1CCCC1 [cyclopentane] 1206

speed of sound lookup needed for CCCC(C)O (stereo not given) [pentan-2-ol] , thanks. 1232

Any idea what its speed of sound is? The molecule is CC(C)O [propan-2-ol] 1139

Entry under review: C1CCCCC1 [cyclohexane] . Reported speed of sound? 1254

So what's the measured speed of sound for this one? CCC(C)O (stereo not given) [butan-2-ol] 1212
